experiment: physchem; conditions: pH 4.5, aqueous buffer, kinetic from dmso stock, Solubility (pH 4.5)
Value Type: solubility at 24 h (µg/mL)

[
  {
    "Compound": "Cc1c(COc2ccccc2-c2cccc(N3CC[C@@]4(C(=O)O)C[C@H]4C3)n2)ccc2c1CCN([C@H]1CCCOC1)C2",
    "Unit": "µg/mL",
    "Observed Value": 110
  },
  {
    "Compound": "Cc1cccc(-c2cccc(N3C[C@@H]4C[C@]4(C(=O)O)C3)n2)c1OCc1ccc2c(c1)CCN(C1COC1)CC2",
    "Unit": "µg/mL",
    "Observed Value": 88
  },
  {
    "Compound": "CO[C@@H]1CN(c2nc(-c3cccc(Cl)c3OCc3ccc4c(c3C)CCN(C3CCOCC3)C4)cs2)CC[C@@H]1C(=O)O",
    "Unit": "µg/mL",
    "Observed Value": 88.9
  },
  {
    "Compound": "Cc1cccc(-c2csc(N3CC[C@@]4(C(=O)O)C[C@H]4C3)n2)c1OCc1ccc2c(c1C)CCN(CC1COCCO1)C2 (stereo partly shown)",
    "Unit": "µg/mL",
    "Observed Value": 71
  },
  {
    "Compound": "Cc1cc(COc2c(C)cccc2-c2cccc(N3C[C@@H]4C[C@]4(C(=O)O)C3)n2)cc2c1CN(C1CCOC1)CC2 (stereo partly shown)",
    "Unit": "µg/mL",
    "Observed Value": 98
  },
  {
    "Compound": "CO[C@H]1CN(c2cccc(-c3cccc(C)c3OCc3ccc4c(c3C)CCN(C3COC3)C4)n2)CC[C@H]1C(=O)O",
    "Unit": "µg/mL",
    "Observed Value": 84
  }
]
